Cited source: PubChem BioAssay (NCI)

System: HCT-116 colon
PROTOCOL DETAILS: NCI tumour cell line growth inhibition, 48 h; in the data active = GI50 below about 0.43 µM; inactive = the rest
Outcomes: active, inactive

{"columns": ["MOLECULE", "CLASS LABEL"],
 "data": [
  ["Cc1ccc(C2NC(=S)NC3=C2CCOc2c3ccc3ccccc23)cc1 (stereo not given)", "inactive"],
  ["CN(C)c1ccc(C(=C2C=CC(=[N+](C)C)C=C2)c2ccc(N(C)C)cc2)cc1 (tested in a mixture with another compound)", "active"],
  ["COc1ccc(NC(=O)n2nc(N)c3ccccc32)cc1OC", "inactive"],
  ["N#Cc1c(-c2ccc(Cl)cc2)n(O)c2ccccc12", "inactive"],
  ["O=C1OCC(c2cccs2)=C1Cl", "inactive"]
]}
